Measured values drawn from patent US20250236657A1 for this set.

Biological target: AAV vector (AAV5-EGFP), adeno-associated virus serotype 5 (adeno-associated virus serotype 5 (AAV5))
Assay: ELISA, AAV5-EGFP coated, culture supernatant, anti-6His, A450
quantity: Binding activity for AAV5 (vs AVR10s) (ratio (AVR10s = 1))
Numbers only.

binder	readoutValue
AVR10s_A330R (receptor) MGSAGESDQITLPKNEVQLNRYVLQEPPKGETSTYDWQLITHPRDYSGEMEGEHSQILKLSNLTPGLYEFKAVVEGQNAHSEGYVNVTVEPEPRKNRPPIAIVSPQFQEISLPTTSTVIDGSQSTDDDKIVQYHWEELKGPLREEKISEDTAILKLSKLVPGNYTFRLTVVDSDGATDSTTANLTVNKAVDHHHHHH	1.5
AVR10s_A330V (receptor) MGSAGESDQITLPKNEVQLNVYVLQEPPKGETSTYDWQLITHPRDYSGEMEGEHSQILKLSNLTPGLYEFKAVVEGQNAHSEGYVNVTVEPEPRKNRPPIAIVSPQFQEISLPTTSTVIDGSQSTDDDKIVQYHWEELKGPLREEKISEDTAILKLSKLVPGNYTFRLTVVDSDGATDSTTANLTVNKAVDHHHHHH	1.83
AVR10s_A330C (receptor) MGSAGESDQITLPKNEVQLNCYVLQEPPKGETSTYDWQLITHPRDYSGEMEGEHSQILKLSNLTPGLYEFKAVVEGQNAHSEGYVNVTVEPEPRKNRPPIAIVSPQFQEISLPTTSTVIDGSQSTDDDKIVQYHWEELKGPLREEKISEDTAILKLSKLVPGNYTFRLTVVDSDGATDSTTANLTVNKAVDHHHHHH	1.94
AVR10s_A330L (receptor) MGSAGESDQITLPKNEVQLNLYVLQEPPKGETSTYDWQLITHPRDYSGEMEGEHSQILKLSNLTPGLYEFKAVVEGQNAHSEGYVNVTVEPEPRKNRPPIAIVSPQFQEISLPTTSTVIDGSQSTDDDKIVQYHWEELKGPLREEKISEDTAILKLSKLVPGNYTFRLTVVDSDGATDSTTANLTVNKAVDHHHHHH	1.53
AVR10s_L333C (receptor) MGSAGESDQITLPKNEVQLNAYVCQEPPKGETSTYDWQLITHPRDYSGEMEGEHSQILKLSNLTPGLYEFKAVVEGQNAHSEGYVNVTVEPEPRKNRPPIAIVSPQFQEISLPTTSTVIDGSQSTDDDKIVQYHWEELKGPLREEKISEDTAILKLSKLVPGNYTFRLTVVDSDGATDSTTANLTVNKAVDHHHHHH	1.51

# next binder below
Task: Bench note: what Binding activity for AAV5 (vs AVR10s) (ratio (AVR10s = 1)) did AVR10s_L348C (receptor) MGSAGESDQITLPKNEVQLNAYVLQEPPKGETSTYDWQCITHPRDYSGEMEGEHSQILKLSNLTPGLYEFKAVVEGQNAHSEGYVNVTVEPEPRKNRPPIAIVSPQFQEISLPTTSTVIDGSQSTDDDKIVQYHWEELKGPLREEKISEDTAILKLSKLVPGNYTFRLTVVDSDGATDSTTANLTVNKAVDHHHHHH show?
Result: 1.19
